- Test system: KM12 colon
- Test Protocol: NCI tumour cell line growth inhibition, 48 h
Where a SMILES comes first, the peptide text is derived from it. [ ]: non-standard residue; d: D form. The star is where a group is joined. Phe(2-OMe) = COc1ccccc1C[CH](N)C(=O)O; Cbz = O=C(OCc1ccccc1)*; OBn = c1ccc(CO*)cc1
For each of the compounds below, state its TGI.

Compound	Result
O=C1c2ccccc2C(=O)c2c1ccc(O)c2O	> 100 µM
COC(=O)C(Cc1ccccc1OC)NC(=O)C(CC(=O)OCc1ccccc1)NC(=O)OCc1ccccc1 (stereo not drawn) (Cbz-Asp(OBn)-[Phe(2-OMe)]-OMe; configuration not given here)	> 100 µM

Task: For the compound `COc1ccc(OC)c(CCc2cc(OC)ccc2OC)c1` , report TGI.
Output: > 10 µM

====

- Tested on: COLO 205 colon
- Test Protocol: NCI tumour cell line growth inhibition, 48 h
Test Readout: log10 TGI (log10 of the value in µM)
Please keep in mind that the values are log10 of TGI expressed in µM.

Completed entries (count: 4):
Compound	Target	Number
CCC(C)C1=NC(C(=O)N/C=C\c2c[nH]c3cc(Br)c(Br)cc23)(C(C)C)NC1=O (stereo not drawn)	COLO 205 colon	1.47
C/C(=C1/N=C(c2cc([N+](=O)[O-])ccc2Cl)N(c2ccc(Br)cc2)C1=O)c1cc2ccccc2oc1=O	COLO 205 colon	1.34
Cc1ccccc1N1C(N)=C(C#N)C(C#N)(C#N)C1c1ccccc1 (stereo not drawn)	COLO 205 colon	1.52
COc1ccc(N2C(=O)C3c4[nH]c5c(C)cccc5c4C4CCC(c5ccccc5)CC4C3C2=O)cc1 (stereo not drawn)	COLO 205 colon	1.92

// next item, log10 TGI requested
Task: Report log10 TGI, nothing else, for this compound: `COc1cc(/C=C\c2cc(/C=C\c3ccc(O)c(OC)c3)n(C(=O)COc3ccccc3)n2)ccc1O`
Output: 0.60

====

- Tested on: SNB-75 CNS
- Test Protocol: NCI tumour cell line growth inhibition, 48 h; in the data active = GI50 below about 0.43 µM; inactive = the rest
Select the correct class. Options are T (active), F (inactive) and nothing else.

Known results for compounds:
Compound	Classification
O=C(Nc1ccc(-n2ccc3c(NC(=O)c4ccccc4)ncnc32)cc1)c1ccc(Cl)c(C(F)(F)F)c1	F
CN(C)c1ccc(N=Nc2ccc(Br)cn2)c(O)c1	F
CC(=O)O[C@H]1[C@@H]2OC(=O)C3(CC3)C2C[C@H]2O[C@]2(C)CC/C=C(\C)CCC[C@@H]1C (stereo not given in full)	F
c1ccc(-c2nc([P+](c3ccccc3)(c3ccccc3)c3ccccc3)c(N3CCOCC3)o2)cc1	T
Oc1ccc(Cl)cc1-c1cc(-c2ccc(Cl)cc2)n[nH]1	F

Task: Fill in: this test's call for `O=c1c2[nH]ccc2nc2n1CCS2` is ___
Output: F

Task: Which result was noted for this compound in the test: CC(C)=C[C@@H]1C[C@H](C)[C@H]2CC[C@H](C)c3c(O)c(OC4OCC(O)C(O)C4O)c(C)c1c32 (stereo not given in full)
Output: F

Task: // outcome(item) with item = `C/C(=N\NC(=O)c1ccccc1N)c1ccccc1O`
Output: F

Task: What was the test verdict on C=C1C(C(O)C[C@H](C)C2O[C@@]3(CCCCO3)CCC2C)O[C@@H]2CCC3(CCC(/C=C/[C@@H](C)C4CC(C)=CC5(O4)O[C@H](C[C@](C)(O)C(=O)O)CCC5O)O3)OC2[C@@H]1O (stereo not given in full) ?
Output: T

Task: What outcome does the record of this test show for CC1CN=C(c2cccc(-c3ccc(-c4ccccc4)o3)c2)N1 (stereo not given) ?
Output: F

All values here come from PubChem BioAssay (NCI).
